Target: DNA topoisomerase 1 (Homo sapiens) (UniProt P11387)
Sequence (P11387 whole entry): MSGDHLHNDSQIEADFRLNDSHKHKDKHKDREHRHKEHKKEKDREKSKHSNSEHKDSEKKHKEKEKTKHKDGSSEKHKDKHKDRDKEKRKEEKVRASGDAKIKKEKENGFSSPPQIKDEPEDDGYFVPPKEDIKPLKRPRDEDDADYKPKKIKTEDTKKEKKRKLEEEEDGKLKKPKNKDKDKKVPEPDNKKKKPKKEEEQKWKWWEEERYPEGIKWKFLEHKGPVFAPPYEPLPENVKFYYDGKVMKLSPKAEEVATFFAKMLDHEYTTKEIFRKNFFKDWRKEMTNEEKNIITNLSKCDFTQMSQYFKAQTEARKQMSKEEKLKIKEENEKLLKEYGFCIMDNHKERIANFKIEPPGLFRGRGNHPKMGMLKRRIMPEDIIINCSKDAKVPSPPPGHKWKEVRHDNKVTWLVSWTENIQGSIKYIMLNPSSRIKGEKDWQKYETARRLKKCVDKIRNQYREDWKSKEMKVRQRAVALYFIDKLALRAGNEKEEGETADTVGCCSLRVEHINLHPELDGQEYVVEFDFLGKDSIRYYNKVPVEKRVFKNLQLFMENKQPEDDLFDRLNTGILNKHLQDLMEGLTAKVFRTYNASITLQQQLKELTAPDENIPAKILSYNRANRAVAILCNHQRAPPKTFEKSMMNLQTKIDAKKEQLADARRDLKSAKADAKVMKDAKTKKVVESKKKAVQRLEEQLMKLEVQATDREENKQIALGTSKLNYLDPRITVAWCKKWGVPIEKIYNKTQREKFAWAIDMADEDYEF
Test: Inhibition of topoisomerase 1 (unknown origin) assessed at 100 uM incubated for 15 mins by ethidium bromide staining based agarose gel electrophoresis method
experimental endpoint: inhibition (%)

Some entries whose results are on file:
[
  {
    "compound": "COc1ccc2[nH]c3c(c2c1)CCN1C(=O)c2ccccc2N(c2cccc(F)c2)C31 (centres undefined)",
    "inhibition (%)": 52.8
  },
  {
    "compound": "O=C1c2ccccc2N(c2cccc(F)c2)C2c3[nH]c4ccccc4c3CCN12 (centres undefined)",
    "inhibition (%)": 34.3
  },
  {
    "compound": "COc1ccc2[nH]c3c(c2c1)CCN1C(=O)c2cc(C)ccc2N(c2cccc(F)c2)C31 (centres undefined)",
    "inhibition (%)": 31.1
  },
  {
    "compound": "O=C1c2ccccc2N(c2cccc(Cl)c2)C2c3[nH]c4ccccc4c3CCN12 (centres undefined)",
    "inhibition (%)": 37.5
  }
]

I = Cc1ccc2c(c1)C(=O)N1CCc3c([nH]c4ccc(Cl)cc34)C1N2c1cccc(F)c1 (centres undefined)
II = Cc1ccc2[nH]c3c(c2c1)CCN1C(=O)c2ccccc2N(c2cccc(F)c2)C31 (centres undefined)
III = Cc1cccc2c1C(=O)N1CCc3c([nH]c4ccccc34)C1N2c1cccc(F)c1 (centres undefined)
IV = O=C1c2ccccc2N(c2cccc(C(F)(F)F)c2)C2c3[nH]c4ccccc4c3CCN12 (centres undefined)
V = Cc1ccc2c(c1)N(c1cccc(F)c1)C1c3[nH]c4ccccc4c3CCN1C2=O (centres undefined)
Req: Ascending by inhibition, please. Submit the labels in the order that the ranking request calls for.
Resp: II, V, I, III, IV
